- assay method text: Solubility in saline
- Type: physicochemical
- condition label: saline solution
measurement label: solubility

Inquiry: Tell me its solubility given C=C1NC(=O)[C@H](Cc2c[nH]c3ccccc23)NC(=O)C(NC(=O)[C@H](CCCCN)NC(=O)[C@@H](N)Cc2ccccc2)CSC[C@@H](C(=O)NC2C(=O)N3CCC[C@H]3C(=O)NCC(=O)N[C@H](C(=O)N[C@@H](C)C(=O)N[C@@H](C)C(=O)NC(=CC)C(=O)NCC(=O)NC3CSC[C@@H]4NC(=O)[C@H](Cc5ccc(O)cc5)NC(=O)[C@@H](CS/C=C\NC4=O)NC(=O)[C@H](CC(N)=O)NC(=O)[C@H](Cc4ccccc4)NC3=O)CSC2C)NC(=O)[C@H](CC(C)C)NC1=O (stereo partly shown) [Mutant R13A] as the entry.
Reply text: > 2 mg/mL

* * *

- Tested on: C. accolens KPL 1818
- assay method text: MIC/MLC assay against C. accolens KPL 1818
- Type: cell-based
- condition label: THyex broth with 1% Tween 80
No end group written: not given here.
measurement label: C. accolens KPL 1818 MIC (micrograms per milliliter)
State just the number; it will be interpreted in micrograms per milliliter.

Inquiry: Give C. accolens KPL 1818 C. accolens KPL 1818 MIC for the following substance: A12T:T14G: core peptide mutant of mutacin 1140, positions 12, 14 replaced by Threonine and Glycine (FKSWSLCTPGCTRGGSFNSYCC; ends and bridges not checked; cysteine pairing not given here; UniProt O68586 42-63, looked up, variant A12T T14G)
Reply text: 0.5

***
Inquiry: Give C. accolens KPL 1818 C. accolens KPL 1818 MIC for the following substance: T14G: core peptide mutant of mutacin 1140, Threonine 14 replaced by Glycine (FKSWSLCTPGCARGGSFNSYCC; not fully specified; ends and bridges not checked; UniProt O68586 42-63, looked up, variant T14G) [Mutant T14G]
Reply text: 0.25

* * *

- Tested on: C. accolens KPL 1818
- assay method text: MIC/MLC assay against C. accolens KPL 1818
- Type: cell-based
- condition label: THyex broth with 1% Tween 80
No end group written: not given here.
measurement label: C. accolens KPL 1818 MIC (micrograms per milliliter)
State just the number; it will be interpreted in micrograms per milliliter.

Before answering, review these 2 worked examples.
Inquiry: Tell me its C. accolens KPL 1818 MIC given R13A:T14A: core peptide mutant of mutacin 1140, positions 13, 14 replaced by Alanine and Alanine (FKSWSLCTPGCAAAGSFNSYCC; UniProt O68586 42-63, looked up, variant R13A T14A) as the entry.
Reply text: 0.5

Inquiry: Tell me its C. accolens KPL 1818 MIC given S5A:A12S dehydrated: core peptide mutant of mutacin 1140, positions 5, 12 replaced by Alanine and Serine; dehydrated form (FKSWALCTPGCSRTGSFNSYCC; ends and bridges not checked; also: dehydrated form; UniProt O68586 42-63, looked up, variant S5A A12S) as the entry.
Reply text: 0.5

***
Inquiry: Tell me its C. accolens KPL 1818 MIC given S5G:T14G: core peptide mutant of mutacin 1140, positions 5, 14 replaced by Glycine and Glycine (FKSWGLCTPGCARGGSFNSYCC; ends and bridges not checked; cysteine pairing not given here; UniProt O68586 42-63, looked up, variant S5G T14G) as the entry.
Reply text: 0.5
